target: T1, TSHR coated onto tubes (human, UniProt P16473 21-764, limits assumed); experiment: TSHR coated tubes, competitor 125I-M22 IgG
T1 construct: whole entry named; also called TSHR coated tubes; thyrotropin receptor
observedProperty: % inhib of 125I-M22 IgG binding at 10 µg/mL (%)
Express your answer in %, writing the number without its unit.

Q. Can you look up the measured % inhib of 125I-M22 IgG binding at 10 µg/mL of 14D3 IgG (antibody, V domains shown) VH: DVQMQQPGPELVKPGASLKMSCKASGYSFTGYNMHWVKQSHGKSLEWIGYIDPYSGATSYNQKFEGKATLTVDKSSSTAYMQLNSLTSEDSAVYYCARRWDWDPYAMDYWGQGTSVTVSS VL: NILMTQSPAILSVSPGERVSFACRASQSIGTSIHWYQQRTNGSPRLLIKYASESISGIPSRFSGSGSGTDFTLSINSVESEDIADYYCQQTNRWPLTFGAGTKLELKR for me?
A. 60
